Where do these numbers come from? They come from PubChem BioAssay (NCI).

Tested on: NCI-H322M lung
EXPERIMENT: NCI-60 one-dose screen, 48 h (100 = growth as untreated, 0 = no growth, -100 = all killed)
CONDITION_INFO: 10 µM unless noted
The panel holds about 83,000 compounds, 20% with a hit somewhere; the sample as a whole holds those more often.
MEASURE_NAME: growth (%)
Just the number please, in %, no unit attached.

Query :: Please report the measured growth for N#Cc1nc(-c2ccccc2)oc1S(=O)(=O)N1CCN(c2ccc(F)cc2)CC1
Result :: 91.6

Query :: Please report the measured growth for Nc1ccc(-c2csc(-n3[nH]c(=O)ccc3=O)n2)cc1
Result :: 103

Query :: Please report the measured growth for COc1ccc(Cn2cc(C(=O)N=Nc3c(O)[nH]c4c(C)cccc34)nn2)cc1
Result :: 89.6

Query :: Please report the measured growth for Nn1c(=O)c(=O)[nH]c2c(cnn2-c2ccccc2)c1=O
Result :: 108

Query :: Please report the measured growth for CC1=C(CCC(C)NCc2ccc(OCCCN3CCCCC3)cc2)C(C)(C)CCC1 (stereo not given)
Result :: -40.5

Query :: Please report the measured growth for C/C=C(/C)n1cnc2c(Nc3ccccn3)nc(Cl)nc21
Result :: 99.3

Query :: Please report the measured growth for NC(=O)c1cnc(Nc2cccc(N)c2)nc1NCCCNC(=O)C1CCC1
Result :: 86.6

Query :: Please report the measured growth for CC1(C)CC[C@]23CC[C@]4(C)[C@H](CC[C@@H]5[C@@]6(C)C/C(=C/c7ccncc7)C(=O)C(C)(C)[C@@H]6CC[C@]54C)[C@H]2[C@H]1OC3
Result :: 90.9

Query :: Please report the measured growth for N#Cc1c(-c2ccccc2)nc(SCC(O)CN2CCOCC2)nc1N1CCOCC1 (stereo not given)
Result :: 52.3

Query :: Please report the measured growth for O=C(NNC(=O)c1nc2cc(F)ccc2n2cccc12)c1cnccn1
Result :: 45.2

----------
Test system: CAKI-1 renal
EXPERIMENT: NCI-60 one-dose screen, 48 h (100 = growth as untreated, 0 = no growth, -100 = all killed)
CONDITION_INFO: 10 µM unless noted
Procedure: Growth inhibition of the CAKI-1 human tumor cell line is measured as a screen for anti-cancer activity. Cells are grown in 96 well plates and exposed to the test compound for 48 hours. Compounds are tested at a single concentration, which is 10^-5 M for most compounds. The reported endpoint is percent growth (GI% or GIPRCNT), where numbers from 0 - 100% represent growth inhibition, and numbers from -100% - 0 represent cell death. For example, a value of 40 represents 60% growth inhibition. […]
About 83,000 compounds went through this panel and 20% of them were active in at least one assay; those are over-represented in the sample as a whole.
Kindly state growth for each of the entries shown.
Just the number please, in %, no unit attached.

Query :: Please report the measured growth for Cc1ccc(-c2csc(N(C(=O)N3CCN(c4cc5c(cc4F)c(=O)c(C(=O)O)cn5C4CC4)CC3)c3ccccc3)n2)cc1
Result :: 2.42

Query :: Please report the measured growth for CC(=O)/C(=C/c1ccc([N+](=O)[O-])cc1)C(=O)c1ccccc1
Result :: 96.3

Query :: Please report the measured growth for COC(=O)N1CC(Oc2ccccn2)C2CC1c1ccccc1O2 (stereo unspecified)
Result :: 93.3

Query :: Please report the measured growth for O=C(Nc1cc(Cl)ccc1O)c1cccc(Nc2ccnc(C(F)(F)F)c2)c1
Result :: -2.35

Query :: Please report the measured growth for COc1ccc(CNc2c3ccccc3nc3ccccc23)c(OC)c1
Result :: 36.2

Query :: Please report the measured growth for COc1ccc(C2=CC(c3cc(OC)c(OC)c(OC)c3)n3ncnc3N2)cc1 (stereo unspecified)
Result :: 21.7

Query :: Please report the measured growth for CSC(SC)=C(C#N)c1nc2ccccc2s1
Result :: 55.8

Query :: Please report the measured growth for Clc1ccccc1-c1cnn2cc(-c3ccccc3)cnc12
Result :: 81.4

Query :: Please report the measured growth for C[n+]1ccc(CCc2c[nH]c3ccccc23)cc1
Result :: 92.6

Query :: Please report the measured growth for FC(F)(F)Oc1cccc(-c2cnc3ccc(-c4ccncc4)nn23)c1
Result :: 7.75

Query :: Please report the measured growth for CCOC(=O)c1c(C)nc2ccccc2c1/C=C/c1cccs1
Result :: 63

----------
Tested on: NCI/ADR-RES ovarian
EXPERIMENT: NCI-60 one-dose screen, 48 h (100 = growth as untreated, 0 = no growth, -100 = all killed)
CONDITION_INFO: 10 µM unless noted
Compounds without any hit were thinned out: in the full panel of roughly 83,000, 20% have a hit. Activity calls are given as the source filed them. How the source made its calls: active means growth percent below 10; inactive means the rest.
MEASURE_NAME: growth

Query :: Report the value of growth obtained on NCI/ADR-RES ovarian for CN1CCN(c2ccc(NC(=O)c3cncnc3Nc3ccc(OCc4cccc(F)c4)c(Cl)c3)cc2)CC1 .
Result :: 75.2% (inactive)

Query :: Report the value of growth obtained on NCI/ADR-RES ovarian for FC(F)(F)Oc1cccc(-c2cnc3ccc(-c4ccncc4)nn23)c1 .
Result :: 11.6% (inactive)

Query :: Report the value of growth obtained on NCI/ADR-RES ovarian for Cc1c2ccncc2c(C)c2c1c1cc(CO)ccc1n2C .
Result :: 4.56% (active)

Query :: Report the value of growth obtained on NCI/ADR-RES ovarian for O=C(CCCCCNC(=O)c1cc(=O)c(O)co1)Nc1ccccc1 .
Result :: 102% (inactive)

Query :: Report the value of growth obtained on NCI/ADR-RES ovarian for N#Cc1c(Nc2ccc(N3CCOCC3)cc2)nc(SCC(=O)c2ccc(Br)cc2)nc1-c1ccccc1 .
Result :: 103% (inactive)

Query :: Report the value of growth obtained on NCI/ADR-RES ovarian for CC1(C)CC[C@]23CC[C@]4(C)[C@H](CC[C@@H]5[C@@]6(C)C/C(=C/c7ccncc7)C(=O)C(C)(C)[C@@H]6CC[C@]54C)[C@H]2[C@H]1OC3 .
Result :: 97.8% (inactive)

Query :: Report the value of growth obtained on NCI/ADR-RES ovarian for COC(=O)CC[C@@H]1O[C@@H](c2ccc(F)cc2)[C@@H](O)[C@H]1O .
Result :: 104% (inactive)

Query :: Report the value of growth obtained on NCI/ADR-RES ovarian for O=C(O)[C@@H](Cc1ccc2ccccc2c1)NC(=O)n1c2ccccc2c2ccccc21 .
Result :: 7.01% (active)

Query :: Report the value of growth obtained on NCI/ADR-RES ovarian for Nc1nc(NC(=O)Nc2ccc(C(=O)O)cc2)nn1-c1ccc(S(N)(=O)=O)cc1 .
Result :: 103% (inactive)

Query :: Report the value of growth obtained on NCI/ADR-RES ovarian for N#C/C(=C\c1ccc([N+](=O)[O-])cc1)n1nnc2cc(F)c(F)cc21 .
Result :: 9.64% (active)

Query :: Report the value of growth obtained on NCI/ADR-RES ovarian for C=CC(=O)Nc1ccc(Nc2nccc(-c3ccc(N4CCCC4)c(C#N)c3)n2)cc1 .
Result :: 57.2% (inactive)

Query :: Report the value of growth obtained on NCI/ADR-RES ovarian for C/C=C(/C)n1cnc2c(Nc3ccccn3)nc(Cl)nc21 .
Result :: 108% (inactive)

Query :: Report the value of growth obtained on NCI/ADR-RES ovarian for CC1(C)NCCC[C@]2(C)[C@H]3CC[C@H]4[C@H]5[C@H](C(=O)/C=C/c6cccnc6)CCC[C@]5(CO)CC[C@@]4(C)[C@]3(C)CC[C@@H]12 .
Result :: 82.4% (inactive)

Query :: Report the value of growth obtained on NCI/ADR-RES ovarian for COc1cc(Cl)c(C)cc1NC(=O)c1cc2ccccc2cc1O .
Result :: 0.336% (active)

Query :: Report the value of growth obtained on NCI/ADR-RES ovarian for CCOC(=O)c1[nH]c2c(c1C)-c1[nH]c(=O)c(S(=O)(=O)c3ccccc3)cc1SC2 .
Result :: 59.7% [100 µM] (inactive)

Query :: Report the value of growth obtained on NCI/ADR-RES ovarian for CN(C)CCCNC(=O)c1cncnc1Nc1ccc(OCc2cccc(F)c2)c(Cl)c1 .
Result :: 43.3% (inactive)

Query :: Report the value of growth obtained on NCI/ADR-RES ovarian for CN1CCN(Cc2ccc(NC(=O)c3cncc(C#Cc4cnc(N)c5ncccc45)c3)cc2C(F)(F)F)CC1 .
Result :: -55.3% (active)

Query :: Report the value of growth obtained on NCI/ADR-RES ovarian for COc1cc(C(=O)n2nc(N3CCOCC3)c3cc(-n4cccc4)ccc32)cc(OC)c1OC .
Result :: 68.5% (inactive)

Query :: Report the value of growth obtained on NCI/ADR-RES ovarian for CCn1c(-c2cc3c([nH]c4ccccc43)c(-c3cccc(O)c3)n2)n[nH]c1=S .
Result :: 64.8% (inactive)

----------
System: OVCAR-8 ovarian
EXPERIMENT: NCI-60 one-dose screen, 48 h (100 = growth as untreated, 0 = no growth, -100 = all killed)
CONDITION_INFO: 10 µM unless noted
Protocol: Growth inhibition of the OVCAR-8 human tumor cell line is measured as a screen for anti-cancer activity. Cells are grown in 96 well plates and exposed to the test compound for 48 hours. Compounds are tested at a single concentration, which is 10^-5 M for most compounds. The reported endpoint is percent growth (GI% or GIPRCNT), where numbers from 0 - 100% represent growth inhibition, and numbers from -100% - 0 represent cell death. For example, a value of 40 represents 60% growth inhibition. […]
Compounds without any hit were thinned out: in the full panel of roughly 83,000, 20% have a hit.
MEASURE_NAME: growth (%)
Just the number please, in %, no unit attached.

Query :: Report the value of growth obtained on OVCAR-8 ovarian for O=C(NNC(=O)c1ccc(NC(=O)c2ccccn2)cc1)Nc1ccc2ccccc2c1 .
Result :: 102

Query :: Report the value of growth obtained on OVCAR-8 ovarian for CCOC(=O)C(Cc1ccc(OC)cc1)C(=O)OCC .
Result :: 26.4

Query :: Report the value of growth obtained on OVCAR-8 ovarian for CCCCCCCCCCCCCOC(=O)c1c(C)[nH]c(/C=C2\N=C(c3ccc[nH]3)C=C2OC)c1C .
Result :: 18.3

Query :: Report the value of growth obtained on OVCAR-8 ovarian for CCN1CCN(CC(=O)Nc2nc3ccc(NCc4ccc(F)cc4)cc3s2)CC1 .
Result :: 95.6

Query :: Report the value of growth obtained on OVCAR-8 ovarian for CC(=O)c1ccc(Nc2nccc(-c3ccc4ccccc4c3)n2)cc1 .
Result :: 96.6

Query :: Report the value of growth obtained on OVCAR-8 ovarian for Cc1ccc(S(=O)(=O)N2CCC(=O)c3ccccc32)cc1 .
Result :: 103

Query :: Report the value of growth obtained on OVCAR-8 ovarian for COc1cccc(C(=O)NNc2nc(Cl)nc(Cl)n2)c1 .
Result :: 95.4

Query :: Report the value of growth obtained on OVCAR-8 ovarian for COc1ccc(CCN(CC(=O)N(CC(N)=O)C2CCC[C@@H]2OCc2ccccc2)C(=O)CN(C(=O)CN(CCc2ccc(Cl)cc2)C(=O)CN(C(=O)CN(C)Cc2ccccc2F)[C@H](C)C2CCCCC2)[C@H](C)C2CCCCC2)cc1OC (some centres undefined) .
Result :: 32.2

Query :: Report the value of growth obtained on OVCAR-8 ovarian for C#CCO[C@H]1CC(CC#C)(CC#C)C(=O)[C@@H]2[C@H]1[C@H]1C[C@@H]3[C@@]4(C)CCC[C@@](C)(C(=O)OC)[C@@H]4CC[C@@]23C=C1C(C)C .
Result :: 58.4
